Assay: Balloon catheter injury to the rat carotid artery, intravenous minipump infusion
Format: in vivo
Settings: rat, plasma, 24 ug/kg/h; intravenous minipump 24 μg/kg/h, 12 days, carotid artery-injured rats
OBSERVED PROPERTY: level at time molar at 288 h (nM)
Entry rule: numbers only, all in nM.

Fill blank: measured level at time molar at 288 h of the compound CC[C@H](C)[C@H](NC(=O)[C@H](Cc1ccc(O)cc1)NC(=O)[C@@H](NC(=O)[C@H](CCCNC(=N)N)NC(=O)[C@@H](N)CC(=O)O)C(C)C)C(=O)N[C@@H](Cc1c[nH]cn1)C(=O)N1CCC[C@H]1C(=O)O is ____.
0.131
